Test details: Pharmacokinetics of Compound 1 in combination with MK-3475 in subjects with various cancers
Format: in vivo, human
Run conditions: human, plasma, oral, 50 mg, Cohort 2, 50 mg BID, steady state C1D8, geometric mean
Measurement kind: Cmax (nM)
State just the number; it will be interpreted in nM.

Problem: Any idea what Cmax was measured for NS(=O)(=O)NCCNc1nonc1C(=NO)Nc1ccc(F)c(Br)c1 ?
Result: 550

* * *

Test details: Pharmacokinetics of Compound 1 in combination with MK-3475 in subjects with various cancers
Assay type: in vivo, human
Run conditions: by dose, 300 mg, first dose, mean ± SD
Measurement kind: Cmax (nM)
State just the number; it will be interpreted in nM.

Problem: Any idea what Cmax was measured for NS(=O)(=O)NCCNc1nonc1C(=NO)Nc1ccc(F)c(Br)c1 [Compound 1] ?
Result: 2290

* * *

Test details: Pharmacokinetics of Compound 1 in combination with MK-3475 in subjects with various cancers
Type: in vivo, human
Run conditions: human, plasma, oral, 300 mg, Cohort 6, 300 mg, first dose, geometric mean; read-out: AUC0-t
Protocol: The subjects were not limited to a specific cancers and study include subjects with various cancers. […] One treatment cycle consisted of 21 days. […] The RP2D was selected from the evaluated safety expansions. […] Pharmacokinetic samples were obtained at the visits of Cycle 1 Day 1, Cycle 1 Day 8 and Cycle 2 Day 1. […] The exact date and time of the PK blood draws were recorded in the eCRF along with the date and time of the last dose of study drug and details of the last meal preceding the blood draw. […]
Measurement kind: AUC(0-t) (µM·h)
State just the number; it will be interpreted in µM·h.

Problem: Any idea what AUC(0-t) was measured for NS(=O)(=O)NCCNc1nonc1C(=NO)Nc1ccc(F)c(Br)c1 ?
Result: 6.92

* * *

Test details: Pharmacokinetics of Compound 1 in combination with MK-3475 in subjects with various cancers
Type: in vivo, human
Run conditions: human, plasma, oral, 100 mg, Diagnosis TNBC, first dose, mean ± SD; read-out: AUC0-t
Measurement kind: AUC(0-t)
Put your answer as a value accompanied by its unit after it.

Problem: Any idea what AUC(0-t) was measured for NS(=O)(=O)NCCNc1nonc1C(=NO)Nc1ccc(F)c(Br)c1 ?
Result: 3.08 µM·h

* * *

Test details: Pharmacokinetics of Compound 1 in combination with MK-3475 in subjects with various cancers
Type: in vivo, human
Run conditions: human, plasma, oral, 100 mg BID, All diagnoses, steady state C1D8, geometric mean
Measurement kind: Cmax (nM)
State just the number; it will be interpreted in nM.

Problem: Any idea what Cmax was measured for NS(=O)(=O)NCCNc1nonc1C(=NO)Nc1ccc(F)c(Br)c1 ?
Result: 1010

* * *

Test details: Dose-escalation study of Compound 1 pharmacokinetics in subjects with advanced malignancies (tablets of Formulations 1 and/or 3, fasted; food effect cohort)
Assay type: in vivo, human
Run conditions: human, plasma, oral, 600 mg, 600 mg BID, steady state, mean ± SD; read-out: AUC0-t
Measurement kind: AUC(0-t) (µM·h)
State just the number; it will be interpreted in µM·h.

Problem: Any idea what AUC(0-t) was measured for NS(=O)(=O)NCCNc1nonc1C(=NO)Nc1ccc(F)c(Br)c1 ?
Result: 19.5

* * *

Test details: Dose-escalation study of Compound 1 pharmacokinetics in subjects with advanced malignancies (tablets of Formulations 1 and/or 3, fasted; food effect cohort)
Type: in vivo, human
Run conditions: human, plasma, oral, 600 mg, 600 mg BID, food effect cohort, Fasted, geometric mean
Measurement kind: Cmax

Problem: Any idea what Cmax was measured for NS(=O)(=O)NCCNc1nonc1C(=NO)Nc1ccc(F)c(Br)c1 [Compound 1] ?
Result: 4.52 µM
